B1: Gamma-crystallin D, residues 90 to 170; numbered along this chain, P07320 (parent)
chain: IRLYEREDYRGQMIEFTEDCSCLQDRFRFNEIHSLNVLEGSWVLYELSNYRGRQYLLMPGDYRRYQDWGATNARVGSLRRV

Variants of: B1
Assay: abundance fitness (aPCA) (normalised: wild type 0, dead -1); higher = more abundant; growth selection in yeast, the domain comes from the species named
Details: Homo sapiens
This section presents variants with their documented abundance fitness values.
Please respond with just the number, no unit label.

// solved cases for abundance fitness follow
mutation name | abundance fitness
L35M | -0.036
E31L | 0.054
R51F | -0.147
L56I | 0.114
C22Y | -0.009
Q12T | -0.041
G52T | -1.07
D25C | -0.308

Name the recorded abundance fitness for E39T . 0.059
